Target: MCT4 (Homo sapiens (Human), UniProt O15427)
Sequence (O15427 whole entry, looked up): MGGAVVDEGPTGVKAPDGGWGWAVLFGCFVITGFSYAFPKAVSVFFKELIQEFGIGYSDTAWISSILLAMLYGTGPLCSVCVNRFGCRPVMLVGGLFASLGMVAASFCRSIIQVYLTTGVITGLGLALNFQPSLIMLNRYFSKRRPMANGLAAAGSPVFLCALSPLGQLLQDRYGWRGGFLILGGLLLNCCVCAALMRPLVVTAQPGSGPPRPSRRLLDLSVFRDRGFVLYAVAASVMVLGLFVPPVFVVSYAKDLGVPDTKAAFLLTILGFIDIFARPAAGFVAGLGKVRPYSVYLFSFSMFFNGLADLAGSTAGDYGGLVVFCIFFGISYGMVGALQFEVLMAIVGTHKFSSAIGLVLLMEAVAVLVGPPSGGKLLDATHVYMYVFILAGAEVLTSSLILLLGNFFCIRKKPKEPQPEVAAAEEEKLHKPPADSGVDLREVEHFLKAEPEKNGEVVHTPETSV
Sequence (P35613 whole entry partner, looked up): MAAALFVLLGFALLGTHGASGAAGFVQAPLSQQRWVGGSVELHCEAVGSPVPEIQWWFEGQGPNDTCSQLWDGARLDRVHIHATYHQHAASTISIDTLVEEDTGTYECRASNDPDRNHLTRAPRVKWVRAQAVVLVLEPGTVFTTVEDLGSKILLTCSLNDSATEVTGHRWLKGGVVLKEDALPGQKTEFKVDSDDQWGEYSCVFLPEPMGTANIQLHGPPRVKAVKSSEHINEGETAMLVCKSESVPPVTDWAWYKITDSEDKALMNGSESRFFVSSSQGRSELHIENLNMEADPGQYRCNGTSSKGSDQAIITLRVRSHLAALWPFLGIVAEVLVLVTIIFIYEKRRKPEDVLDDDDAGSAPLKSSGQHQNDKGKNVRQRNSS
Assay: Lactate transport in MCT4-expressing MDA-MB-453 breast cancer cells (BCECF)
Type: cell-based
Conditions: MDA-MB-453 cells stably expressing MCT4; 50 mM L-lactate
Quantity: IC50 (nM)
Entry rule: numbers only, all in nM.

CC(C)(OCc1cc(-c2ccc(Cl)cc2)n(Cc2ccccc2Cl)n1)C(N)=O
17000
CC(C)(OCc1cc(-c2ccc(Cl)cc2)n(Cc2ccccn2)n1)C(=O)O
14000
CC(C)(OCc1cc(-c2ccccc2Cl)n(Cc2ccccc2Cl)n1)C(=O)O
320
COc1cccc(-c2cc(COC(C)(C)C(=O)O)nn2Cc2ccccc2Cl)c1
26

Now look at this one.
q: Request the reported IC50 associated with CC(C)(OCc1cc(-c2nccs2)n(Cc2ccccc2Cl)n1)C(=O)O
a: 5300
